target: P99 (Enterobacter cloacae)
Sequence (P05364 21-381): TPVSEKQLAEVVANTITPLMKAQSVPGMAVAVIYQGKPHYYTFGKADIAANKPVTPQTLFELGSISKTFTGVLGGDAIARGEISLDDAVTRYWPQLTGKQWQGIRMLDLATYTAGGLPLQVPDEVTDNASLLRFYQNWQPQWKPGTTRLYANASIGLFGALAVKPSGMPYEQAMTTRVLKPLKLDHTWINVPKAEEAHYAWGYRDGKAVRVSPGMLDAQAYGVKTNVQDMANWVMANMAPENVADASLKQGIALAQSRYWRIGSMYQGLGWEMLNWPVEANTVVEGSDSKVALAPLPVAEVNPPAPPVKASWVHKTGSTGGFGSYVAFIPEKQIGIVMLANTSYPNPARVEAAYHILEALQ
Measurement Label: Kd (nM)

Smiles Input	Measurement Label	Result Units	Numeric Value
O=C(O)c1c(F)ccc2c1OB(O)[C@@H]1C[C@H]21	Kd	nM	0.53

---

The entries below come with measured IC50 values attached.
biological target: CTX-M-15 (Escherichia coli); experiment: IC50 of beta-lactamase inhibition (nitrocefin hydrolysis); format: biochemical; conditions: read-out: IC50 (nM) of drug
Measurement Label: IC50 (nM)

Molecule	Tested Target	Result Units	Numeric Value
NC(=O)[C@@H]1CC[C@@H]2CN1C(=O)N2OS(=O)(=O)O [Avibactam, avibactam]	CTX-M-15 (Escherichia coli)	nM	0.56
O=C(O)C[C@@H]1CC[C@H](NC(=O)Cc2cccs2)B(O)O1 [Vaborbactam, vaborbactam]	CTX-M-15 (Escherichia coli)	nM	92
O=C(O)c1c(F)ccc2c1OB(O)[C@@H]1C[C@H]21 [QPX7728]	CTX-M-15 (Escherichia coli)	nM	1.2

---

biological target: VIM-1 (Pseudomonas aeruginosa, UniProt A0A0F7KYQ8); experiment: IC50 of beta-lactamase inhibition (nitrocefin hydrolysis); assay type: biochemical; settings: IC50 (nM) of drug
Measurement Label: IC50

Compound	Tested Target	Result
O=C(O)C[C@@H]1CC[C@H](NC(=O)Cc2cccs2)B(O)O1 [Vaborbactam, vaborbactam]	VIM-1 (Pseudomonas aeruginosa, UniProt A0A0F7KYQ8)	> 160000 nM
NC(=O)[C@@H]1CC[C@@H]2CN1C(=O)N2OS(=O)(=O)O [Avibactam, avibactam]	VIM-1 (Pseudomonas aeruginosa, UniProt A0A0F7KYQ8)	> 160000 nM
O=C(NC1CCNCC1)[C@@H]1CC[C@@H]2CN1C(=O)N2OS(=O)(=O)O [Relebactam, relebactam]	VIM-1 (Pseudomonas aeruginosa, UniProt A0A0F7KYQ8)	> 160000 nM

---

target: SHV-12 (Klebsiella pneumoniae, UniProt P0AD64, E235K/G234S/L31Q); test: IC50 of beta-lactamase inhibition (nitrocefin hydrolysis); assay type: biochemical; settings: read-out: IC50 (nM) of drug
Sequence (P0AD64 22-286 L31Q/G234S/E235K): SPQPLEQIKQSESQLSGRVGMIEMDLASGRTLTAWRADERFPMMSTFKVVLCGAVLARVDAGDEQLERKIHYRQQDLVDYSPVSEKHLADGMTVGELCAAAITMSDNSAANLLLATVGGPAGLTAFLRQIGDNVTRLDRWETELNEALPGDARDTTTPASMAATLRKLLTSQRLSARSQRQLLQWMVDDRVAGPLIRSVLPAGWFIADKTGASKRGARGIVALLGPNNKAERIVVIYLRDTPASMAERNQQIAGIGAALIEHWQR

Smiles Input	Tested Target	IC50
O=C(O)C[C@@H]1CC[C@H](NC(=O)Cc2cccs2)B(O)O1	SHV-12 (Klebsiella pneumoniae, UniProt P0AD64, E235K/G234S/L31Q)	56 nM
NC(=O)[C@@H]1CC[C@@H]2CN1C(=O)N2OS(=O)(=O)O	SHV-12 (Klebsiella pneumoniae, UniProt P0AD64, E235K/G234S/L31Q)	0.61 nM
O=C(O)c1c(F)ccc2c1OB(O)[C@@H]1C[C@H]21	SHV-12 (Klebsiella pneumoniae, UniProt P0AD64, E235K/G234S/L31Q)	1.9 nM
O=C(NC1CCNCC1)[C@@H]1CC[C@@H]2CN1C(=O)N2OS(=O)(=O)O	SHV-12 (Klebsiella pneumoniae, UniProt P0AD64, E235K/G234S/L31Q)	330 nM

---

target: KPC-2 (Klebsiella pneumoniae); experiment: IC50 of beta-lactamase inhibition (nitrocefin hydrolysis); format: biochemical; conditions: KPC-2, class A; substrate nitrocefin; 10 min preincubation at 37°C; read-out: IC50 (nM) of drug
Sequence (Q9F663 25-293 limits assumed): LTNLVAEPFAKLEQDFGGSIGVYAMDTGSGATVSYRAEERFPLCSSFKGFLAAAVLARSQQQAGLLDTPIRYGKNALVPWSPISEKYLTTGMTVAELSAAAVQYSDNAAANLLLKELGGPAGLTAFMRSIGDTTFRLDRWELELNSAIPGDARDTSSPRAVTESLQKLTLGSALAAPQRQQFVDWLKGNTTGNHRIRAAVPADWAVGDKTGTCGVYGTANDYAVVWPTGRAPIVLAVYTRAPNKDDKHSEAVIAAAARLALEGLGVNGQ
Reported IC50 values for the following compounds.
Measurement Label: IC50 (nM)

Smiles Input	Tested Target	Measurement Label	Result Units	Numeric Value
O=C(O)C[C@@H]1CC[C@H](NC(=O)Cc2cccs2)B(O)O1	KPC-2 (Klebsiella pneumoniae)	IC50	nM	110
O=C(O)c1c(F)ccc2c1OB(O)[C@@H]1C[C@H]21	KPC-2 (Klebsiella pneumoniae)	IC50	nM	2.9
